The reported numbers originate from patent US20250368742A1.

Answer each item with its documented Kd.
- testSystem: T1, MICA002-ECD-HISAvi (human, UniProt Q29983 24-308)
- T1 construct: also called MICA002 polypeptide
- T1 chain: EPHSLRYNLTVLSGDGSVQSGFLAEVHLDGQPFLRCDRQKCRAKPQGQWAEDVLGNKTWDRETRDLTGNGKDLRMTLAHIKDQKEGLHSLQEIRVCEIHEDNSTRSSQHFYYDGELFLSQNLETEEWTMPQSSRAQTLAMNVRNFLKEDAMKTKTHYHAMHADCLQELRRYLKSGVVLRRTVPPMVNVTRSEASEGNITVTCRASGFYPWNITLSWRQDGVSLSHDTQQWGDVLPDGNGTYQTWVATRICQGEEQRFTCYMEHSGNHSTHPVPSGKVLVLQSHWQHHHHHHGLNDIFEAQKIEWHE
- measurementProtocol: SPR (Carterra); antibody captured by anti-human Fc, monomeric ECD antigen injected;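 also: dissociation phase followed for about 10 min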
// unit must come after the numeric part

May I ask what Kd has been recorded for #39 (antibody, human IgG1, V domains shown, also called PL114G03; Hit ID 39) VH: QVQLQQSGAELVRPGTSVKVSCKASGYAFTDYLIEWVKQRPGQGLEWIGGINPGSGSTNYNEKFKGKAILTADKSSSTAYMQLSSLTSDDSAVYFCARLDGNYVGYWGQGTTLTVSS VL: DILLTQSPASLSASVGETVTITCRASGNIHNYLAWYQQKQGKSPQLLVYHAKTLADGVPSRFSGSGSGTQYSLKINSLQPEDFGSYYCQHFWSTPWTFGGGTKLEIK ?
14.4 nM

Request: #40 (antibody, human IgG1, V domains shown, also called PL113C03; Hit ID 40) VH: QVQLQQSGPELVKPGASVKVSCKASGYAFTKYNIYWVKQSHGKSLEWIGYIDPYNGGTVYNQKFKGKATLTVDKSSSTAYMHLNSLTSEDSAVYYCATTDGYSLFTYWGQGTLVTVSA VL: DIQMTQTTSSLSASLGDRVTITCSAGQGINNYLNWYQQKPDGTVKLLIFYTSSLQSGVPSRFSGSGSGADYSLTISNLEPEDIATYYCQQYSKLPLTFGAGTKLELK
13.9 nM

Request: #36 (antibody, human IgG1, V domains shown, also called PL116H11; Hit ID 36) VH: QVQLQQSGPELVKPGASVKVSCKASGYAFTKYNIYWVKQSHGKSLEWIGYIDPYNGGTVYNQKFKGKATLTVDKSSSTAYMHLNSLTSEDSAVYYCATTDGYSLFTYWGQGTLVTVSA VL: DIQMTQTTSSLSASLGDRVTISCRASQDISNYLNWYQQKPDGTVKLLIYYTSRLHSGVPSRFSGSGSGTDYSLTISNLEQEDIATYFCQQGNTLPFTFGSGTKLEIK
20.7 nM

Request: #31 (antibody, human IgG1, V domains shown, also called PL116D11; Hit ID 31) VH: EVQLQQSGPELVKPGASVKVSCKASGYAFTKYNIYWVKQSHGKSLEWIGYIDPYNGGTVQNQKFKGKATLTVDKSSSTAYMHLNSLTSEDSAVYYCATTDGYSLFTYWGQGTLVTVSS VL: DIQMTQTTSSLSASLGDRVTISCRASQDIGNYLNWYQQKPDGTVKLLIYYTSRLHSGVPSRFSGSGSGTDYSLTISNLEQEDIATYFCQQGNTLPFTFGSGTKLEIK
13.2 nM

Request: #34 (antibody, human IgG1, V domains shown, also called PL111H04; Hit ID 34) VH: QVQLKQSGPELVKPGASVKVSCKASGYAFTKYNIYWVKQSHGKSLEWIGYIDPYNGGTVQNQKFKGKATLTVDKSSSTAYMHLNSLTSEDSAVYYCATTDGYSLFTYWGQGTLVTVSS VL: DIVLTQSPTTMAASPGEKITITCSASSSISSNYLHWYQQKPGFSPKLLIYRTSNLASGVPARFSGSGSGTSYSLTIGTMEAEDVATYYCQQGSSIPFTFGSGTKLEIK
24.9 nM
